# System: human embryonic stem cell derived neural stem cells (NSCs)
# ASSAY_EXPLANATION: Neural stem cell proliferation assay (neurogenesis assay, ATP/CellTiterGlo)
# Type: cell-based
# CONDITION_CONTEXT: 96 h, compound concentration at which 150% activity of control (100%) is reached, NSC proliferation by ATP level after 4 days incubation, dose response 8 μM to 8 nM
MEASUREMENT_NAME: EC150
Show the value, then the unit it is measured in.

Data request: Return EC150 measured with human embryonic stem cell derived neural stem cells (NSCs) given this compound: Fc1ccc(-n2cnc3ccc(-c4ccnn4-c4ccc(C(F)(F)F)cc4)cc32)c(F)c1 [Example 15]
Data returned: 1.33 µM

Data request: Return EC150 measured with human embryonic stem cell derived neural stem cells (NSCs) given this compound: Fc1ccc(-n2nccc2-c2ccc3ncn(-c4ccc(F)cc4F)c3c2)cc1 [Example 17]
Data returned: 0.047 µM

Data request: Return EC150 measured with human embryonic stem cell derived neural stem cells (NSCs) given this compound: Cc1ccc(-n2nccc2-c2ccc3ncn(-c4ccc(C)cc4)c3c2)cc1 [Example 1]
Data returned: 0.008 µM

Data request: Return EC150 measured with human embryonic stem cell derived neural stem cells (NSCs) given this compound: Fc1ccc(-n2cnc3ccc(-c4ccnn4-c4ccc(C(F)(F)F)cc4)cc32)cc1 [Example 10]
Data returned: 1.1 µM

Data request: Return EC150 measured with human embryonic stem cell derived neural stem cells (NSCs) given this compound: Cc1ccc(-n2cnc3ccc(-c4ccnn4-c4ccc(F)cc4)cc32)cc1 [Example 6]
Data returned: 0.0195 µM

Data request: Return EC150 measured with human embryonic stem cell derived neural stem cells (NSCs) given this compound: c1ccc(-n2nccc2-c2ccc3ncn(-c4ccccc4)c3c2)cc1 [Example 2]
Data returned: 0.014 µM

Data request: Return EC150 measured with human embryonic stem cell derived neural stem cells (NSCs) given this compound: CS(=O)(=O)c1ccc(-n2cnc3ccc(-c4ccnn4-c4ccc(F)cc4)cc32)cc1 [Example 26]
Data returned: 0.28 µM

Data request: Return EC150 measured with human embryonic stem cell derived neural stem cells (NSCs) given this compound: FC(F)(F)c1ccc(-n2nccc2-c2ccc3ncn(-c4ccc(Cl)cc4)c3c2)cc1 [Example 12]
Data returned: 0.71 µM

* * *

# Test system: human embryonic stem cell derived neural stem cells (NSCs)
# ASSAY_EXPLANATION: Neural stem cell proliferation assay (neurogenesis assay, ATP/CellTiterGlo)
# Assay type: cell-based
# CONDITION_CONTEXT: 96 h, compound concentration at which 150% activity of control (100%) is reached, NSC proliferation by ATP level after 4 days incubation, dose response 8 μM to 8 nM
MEASUREMENT_NAME: EC150 (µM)
Give just the number in µM; leave the unit off.

Data request: Return EC150 measured with human embryonic stem cell derived neural stem cells (NSCs) given this compound: "COc1ccc(-n2cnc3ccc(-c4ccnn4-c4ccc(F)cc4)cc32)cc1"
Data returned: 0.021

Data request: Return EC150 measured with human embryonic stem cell derived neural stem cells (NSCs) given this compound: "Fc1ccc(-n2nccc2-c2ccc3ncn(-c4ccccc4)c3c2)cc1"
Data returned: 0.024

Data request: Return EC150 measured with human embryonic stem cell derived neural stem cells (NSCs) given this compound: "Fc1ccc(-n2nccc2-c2ccc3ncn(-c4ccc(F)cc4)c3c2)cc1"
Data returned: 0.044

Data request: Return EC150 measured with human embryonic stem cell derived neural stem cells (NSCs) given this compound: "Clc1ccc(-n2nccc2-c2ccc3ncn(-c4ccncc4)c3c2)cc1"
Data returned: 0.036

Data request: Return EC150 measured with human embryonic stem cell derived neural stem cells (NSCs) given this compound: "Fc1ccc(-n2nccc2-c2ccc3ncn(-c4ccncc4)c3c2)cc1"
Data returned: 0.044

Data request: Return EC150 measured with human embryonic stem cell derived neural stem cells (NSCs) given this compound: "FC(F)(F)c1ccc(-n2cnc3ccc(-c4ccnn4-c4ccc(Cl)cc4)cc32)cc1"
Data returned: 0.62

Data request: Return EC150 measured with human embryonic stem cell derived neural stem cells (NSCs) given this compound: "Fc1ccc(-n2cnc3ccc(-c4cncn4-c4ccc(Cl)cc4)cc32)cc1"
Data returned: 0.074

Data request: Return EC150 measured with human embryonic stem cell derived neural stem cells (NSCs) given this compound: "Cc1ccc(-n2nccc2-c2ccc3ncn(-c4ccccc4)c3c2)cc1"
Data returned: 0.015

Data request: Return EC150 measured with human embryonic stem cell derived neural stem cells (NSCs) given this compound: "Fc1ccc(-n2nccc2-c2ccc3ncn(-c4ccc(Cl)cc4F)c3c2)cc1"
Data returned: 0.084
